PROTOCOL DESCRIPTION: NCI Yeast Anticancer Drug Screen. Data for the rad50 strain (AID 155);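 also: 0% = growth of vehicle-only cultures of the same strain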
COND: S. cerevisiae rad50 strain growth inhibition; at 33.0 µM; active compounds read high
The panel holds about 79,000 compounds, 15% with a hit somewhere; the sample as a whole holds those more often.
Consider the reported growth inhibition of an entry and match it to a band in class 1: < 60%; class 2: ≥ 60% and < 90%; class 3: ≥ 90%

Solved cases (5 shown):
>>> cat("CCOP(=O)(OCC)/C(C#N)=C/c1cccc(Oc2ccccc2)c1")
"class 3"
>>> cat("O=C1C2=C(c3ccccc31)C(c1ccccc1)N1C(=O)CSC1=N2 (stereo not given)")
"class 1"
>>> cat("O=C(C#Cc1ccccc1)/C=C/c1ccccc1")
"class 2"
>>> cat("CCN(CC)C(=S)N/N=C(\\C)c1ccccc1O")
"class 3"
>>> cat("S=C1N(c2ccc(Cl)cc2)C2=C(N=Nc3ccccc3)C(=Nc3ccccc3S2)N1c1ccccn1")
"class 3"

Query block: Lab log: "CCCCCCCCCCCCCCCCCCNC(=S)/N=C/c1c(O)c2ccccc2[nH]c1=O" — assign growth inhibition category
Result block: class 1

Query block: Another: O=C(NCCCCN1CC2CCCC2C1)C(C1CCCCC1)C1CCCCC1 (stereo not given)
Result block: class 2

Query block: Another: "O=[N+]([O-])[O][Sn]([O][Sn]([O][N+](=O)[O-])([c]1ccccc1)[c]1ccccc1)([c]1ccccc1)[c]1ccccc1"
Result block: class 1
